%Inh values, listed per item
System: FYN;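 also: KINOMEscan kinase panel screen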
Settings: concentration: 1 μM, replicates: in singlicate; n = 1
Hey, just the number and the unit after it is fine.

Consider the following illustrative entries.
1) Cc1nn2c(=O)cc(N3CCO[C@H](C)C3)nc2n1Cc1cccc(Cl)c1Cl
7%
2) Cc1cc(-c2c(-c3ccc(F)cc3)ncn2CCCN2CCOCC2)nc(N)n1
0%
3) NCCC(NC(=O)c1cc(Br)c(-c2ccnc3[nH]ccc23)s1)c1ccccc1.O=C(O)C(F)(F)F.O=C(O)C(F)(F)F (stereo not shown)
0%

Per the record, `Cc1cc(-c2ccnc(Nc3cccc(C#N)c3)n2)cc(C)c1O` has %Inh of 0%

Per the record, `Cc1ccccc1CC(=O)N1CCc2cc(-c3cn(C)c4ncnc(N)c34)ccc21` has %Inh of 32%

Per the record, `CC(C)(C)c1ccc(C(=O)Nc2cn3cc(-n4ccnc4)ccc3n2)cc1` has %Inh of 21%

Per the record, `O=C(Nc1c(F)cccc1F)c1cc(C(=O)c2ccccc2F)c[nH]1` has %Inh of 0%

Per the record, `CN(C)c1ncnc2nc[nH]c12` has %Inh of 0%

Per the record, `Cc1ccc(NC(=O)c2ccnc(N3CCCCC3)c2)cc1-c1ccc(C(=O)NCC2CC2)cc1` has %Inh of 2%

Per the record, `CCn1c(-c2nonc2N)nc2c(-c3ccccc3)ncc(OCCCN)c21.O=C(O)C(F)(F)F.O=C(O)C(F)(F)F` has %Inh of 0%

Values from paper PMC5540273
